- Target system: recombinant human MASP2 active protease (amino acids 297-686, C-terminal His Tag) (human, UniProt O00187 297-686)
- Sequence (O00187 other isoform, or with tags, fused parts or gaps limits assumed): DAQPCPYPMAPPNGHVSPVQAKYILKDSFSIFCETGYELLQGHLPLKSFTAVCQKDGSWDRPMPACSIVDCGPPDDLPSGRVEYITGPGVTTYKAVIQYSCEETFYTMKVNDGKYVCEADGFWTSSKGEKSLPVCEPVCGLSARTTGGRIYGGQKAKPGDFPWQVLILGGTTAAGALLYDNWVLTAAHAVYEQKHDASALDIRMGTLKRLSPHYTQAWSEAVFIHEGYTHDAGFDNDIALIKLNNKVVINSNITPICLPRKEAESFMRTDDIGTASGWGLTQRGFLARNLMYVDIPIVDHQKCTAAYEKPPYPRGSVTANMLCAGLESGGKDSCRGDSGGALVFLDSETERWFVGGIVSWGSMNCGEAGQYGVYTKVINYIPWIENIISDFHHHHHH
- Assay notes: cell-based or functional assay
Bridge positions count the residues as written; N and C are the ends. Square brackets hold non-standard residues; d marks the D form. Ends that are not written are not given here. aIle = CC[C@@H](C)[C@H](N)C(=O)O
Quantity kind: human MASP2 IC50 (nM)
Answers are plain numbers, in nM.

## Task Name the reported human MASP2 IC50 value associated with the binder A[aIle]CSRSLPPICIPD-NH2 (disulfide 3-11; N-terminus assumed; SMILES CC[C@@H](C)[C@H](NC(=O)[C@H](C)N)C(=O)N[C@H]1CSSC[C@@H](C(=O)N[C@H](C(=O)N2CCC[C@H]2C(=O)N[C@@H](CC(=O)O)C(N)=O)[C@@H](C)CC)NC(=O)[C@H]([C@@H](C)CC)NC(=O)[C@@H]2CCCN2C(=O)[C@@H]2CCCN2C(=O)[C@H](CC(C)C)NC(=O)[C@H](CO)NC(=O)[C@H](CCCNC(=N)N)NC(=O)[C@H](CO)NC1=O) [Example 331: A-(allo-I)C+SRSLPPIC+IPD-NH2]
## Result 610
